tested on: SF-295 CNS; experiment: NCI tumour cell line growth inhibition, 48 h
Overview of reported TGI across a group of compounds:

Completed entries (count: 4):
Compound	Assay Readout	Data Value
CC1Cc2c(cc(N)nc2Br)NC1=O (stereo not drawn)	TGI	> 100 µM
O=C(/C=C/c1ccc(OCC(=O)N2CCN(c3ccccc3)CC2)cc1)c1ccc(Cl)cc1	TGI	54.7 µM
CCCOC1OC(CS(=O)(=O)O)C(OC(C)=O)C(OC(C)=O)C1OC(C)=O (stereo not drawn)	TGI	> 100 µM
Cc1c(C#N)cccc1-c1cc(-c2cn(Cc3cccc(C(C)(C)O)n3)nn2)nc(N)n1	TGI	> 100 µM

Req: Recall the reported TGI of `CC1=C(/C=C/C(C)=C\C=C\C(C)=C\C(=O)Nc2ccc3c(c2)OCO3)C(C)(C)CCC1` when tested on SF-295 CNS.
Resp: > 100 µM

Req: Recall the reported TGI of `O=C1c2c(O)cccc2Cc2cccc(O)c21` when tested on SF-295 CNS.
Resp: 0.782 µM

Req: Recall the reported TGI of O=C1CCC(Cc2ccc(Cl)cc2Cl)C(=O)N1 (stereo not drawn) when tested on SF-295 CNS.
Resp: > 100 µM

Req: Recall the reported TGI of COC(=O)C1=C(C)N(NC(N)=O)C2(N)N(NC(N)=O)C(C)=C(C(=O)OC)C12C(=O)OC (stereo not drawn) when tested on SF-295 CNS.
Resp: > 10 µM

---

tested on: A498 renal; test: NCI tumour cell line growth inhibition, 48 h
Overview of reported TGI across a group of molecules:

Completed entries (count: 2):
Molecule	Assay Readout	Data Value
CC(CN(CP(=O)([O-])[O-])CP(=O)([O-])[O-])N(CP(=O)([O-])[O-])CP(=O)([O-])[O-].N.N.[Pt+2] (centres undefined)	TGI	> 100 µM
O=C1/C(=C/C=C/c2ccccc2)CCC1CNc1ccc(Br)cc1 (centres undefined)	TGI	> 100 µM

Req: Give the reported TGI for this molecule. `CCN(Cc1cccc(OC)c1)c1ccc(CO)c(Cl)c1`
Resp: 0.191 µM

Req: Give the reported TGI for this molecule. `c1cc2c3c(c1)[C@@H]1O[C@@H]1c1cccc(c1-3)[C@@H]1O[C@H]21`
Resp: > 100 µM

Req: Give the reported TGI for this molecule. Cc1cccc(C(C)(C)C)c1NC(=O)C(=O)C(C(=O)/C=C\c1ccccc1)C1OC(=O)c2ccccc21 (centres undefined)
Resp: > 100 µM

Req: Give the reported TGI for this molecule. `Cc1ccccc1-c1c(N)nc(NC#N)nc1C(=O)Nc1ccccc1`
Resp: > 100 µM

Req: Give the reported TGI for this molecule. `O=c1n(C2CCCCC2)c(=C(Cl)Cl)c(=C(Cl)Cl)n1C1CCCCC1`
Resp: > 100 µM

Req: Give the reported TGI for this molecule. CC1=C([Se]CC(OC(=O)CC[Se]c2ccccc2)C(=O)NCCCCCC(=O)OCc2ccccc2)C(=O)c2ccccc2C1=O (centres undefined)
Resp: 8.48 µM

Req: Give the reported TGI for this molecule. `Cc1c(/C=N/NS(=O)(=O)c2ccccc2)no[n+]1[O-]`
Resp: > 100 µM

Req: Give the reported TGI for this molecule. `Oc1ccc(Cc2ccc(O)c3ncccc23)c2cccnc12`
Resp: 0.706 µM

Req: Give the reported TGI for this molecule. `CCOC(=O)c1nc2ccccc2nc1Nc1ccc(F)cc1`
Resp: 58.5 µM

Req: Give the reported TGI for this molecule. `O=c1cnc2cc3ccccc3cc2[nH]1`
Resp: > 100 µM

Req: Give the reported TGI for this molecule. `Cc1cn([C@@H]2C[C@](C)(CO)N(C)O2)c(=O)[nH]c1=O`
Resp: > 100 µM

Req: Give the reported TGI for this molecule. `O=C(O)c1cc2ccccc2c(O)c1O`
Resp: 51.7 µM

Req: Give the reported TGI for this molecule. `CC(=O)Nc1ccc(/C=C/[N+](=O)[O-])cc1`
Resp: 15.2 µM

Req: Give the reported TGI for this molecule. `Cc1ccc(C(=O)Nc2ccc(CN3CCN(C)CC3)c(C(F)(F)F)c2)cc1C#Cc1cnc(N)cc1C#N`
Resp: 0.701 µM

Req: Give the reported TGI for this molecule. Cc1ccc(NC(=O)CC2C(=O)Nc3ccccc3S2=O)cc1C (centres undefined)
Resp: > 100 µM

Req: Give the reported TGI for this molecule. `COc1ccc(Nc2nc(NNC(=O)Cc3ccccc3)nc(NNC(=O)c3ccncc3)n2)cc1`
Resp: > 10 µM

Req: Give the reported TGI for this molecule. `Cc1cc(C)c(C#N)c(SC(=S)NC(=O)c2ccccc2)n1`
Resp: > 100 µM

---

test system: SW-620 colon; test: NCI tumour cell line growth inhibition, 48 h
Assay Readout: GI50

Completed entries (count: 3):
Smiles	Tested On	GI50
NC(=O)c1cnc(N[C@@H]2CCCC[C@@H]2N)nc1Nc1cccc(-n2nccn2)c1	SW-620 colon	3810 nM
OCc1cn(Cc2cccc(Cl)c2)c2ccccc12	SW-620 colon	586 nM
C=C1C(=O)O[C@H]2[C@H]1CC/C(COC(=O)NCc1cc3ccccc3[nH]1)=C\CC[C@@]1(C)O[C@@H]21	SW-620 colon	1720 nM

Note: attention shifts to another entry.
Req: Give the reported GI50 for this compound. `c1ccc(Cc2nc3ccc(Nc4ncnc5ccccc45)cc3[nH]2)cc1`
Resp: > 25000 nM

---

system: M14 melanoma; experiment: NCI tumour cell line growth inhibition, 48 h
Assay Readout: TGI

Req: Give the reported TGI for this compound. Cc1ccc(NC(=O)CC2C(=O)Nc3ccccc3S2=O)cc1C (stereo not given)
Resp: > 100 µM

---

system: M14 melanoma; test: NCI tumour cell line growth inhibition, 48 h
Overview of reported TGI across a group of molecules:

Molecule	TGI
CCCCn1c2cc(OCc3cn(-c4ccc(Cl)cc4)nn3)ccc2c2ccnc(C)c21	16.4 µM
Cc1cn(C2CC(F)C(CO)O2)c(=O)[nH]c1=O (stereo unspecified)	> 100 µM
Cc1ccc2c(c1)nc(C(=O)c1ccco1)c(C(F)(F)F)[n+]2[O-]	> 100 µM
COc1cc2oc(=O)ccc2cc1C1OC(=O)C2OC21C (stereo unspecified)	> 100 µM
O=C1Sc2cc3ccccc3cc2C(=O)Sc2cc3ccccc3cc21	> 63.9 µM

Req: Give the reported TGI for this molecule. `O=Cc1c(-c2cc(O)ccc2O)nc2sccn12`
Resp: 30.1 µM

---

test system: NCI-H460 lung; test: NCI tumour cell line growth inhibition, 48 h
Assay Readout: TGI

Compound	TGI
O=C1C(Cl)C(c2cccc(O)c2)N1n1cnc2ccccc2c1=O (stereo unspecified)	> 100 µM
O=C1CCc2cc3c(cc21)C(C(=O)O)CC3 (stereo unspecified)	> 100 µM

Req: Give the reported TGI for this compound. `C/C(=N\NC(=O)c1ccncc1)c1cccc(C(F)(F)F)c1`
Resp: > 10 µM

Req: Give the reported TGI for this compound. `CCCCCCCCCCC/C(=N/O)c1ccc(O)c2ncccc12`
Resp: 17 µM

Req: Give the reported TGI for this compound. `CCOC(=O)c1c(SCCN2CCCCC2)n(-c2ccccc2)c(=S)n(-c2ccccc2)c1=O`
Resp: > 100 µM

Req: Give the reported TGI for this compound. `NNc1nnc(-c2ccccc2)nc1Cc1ccccc1`
Resp: > 100 µM

---

system: PC-3 prostate; experiment: NCI tumour cell line growth inhibition, 48 h
Assay Readout: TGI

Completed entries (count: 5):
Molecule	TGI
C#Cc1cccc(Nc2ncnc3cc(OCCOC)c(OCCOC)cc23)c1	> 100 µM
O=C1NC(=S)N/C1=C\c1ccc(Sc2ccccc2C(=O)O)s1	> 100 µM
CCCCNC(=S)Nc1nc(C(=O)NNC(=S)NCc2ccccc2)cs1	> 100 µM
C=C1[C@@H](C)[C@H]2[C@H](Cc3ccccc3)NC(=O)[C@]23OC(=O)/C=C/[C@H](O)CCC[C@@H](C)C/C=C/[C@H]3[C@@H]1O	> 100 µM
C[C@]12CCC3[C@@H](C[C@@H]4SC(Nc5ccccc5)=N[C@@]45CC(=O)CC[C@]35C)[C@@H]1CCC2=O (some centres not stated)	63.7 µM

Req: Give the reported TGI for this molecule. CN1C(=O)C(CCO)(C(C)(C)C)c2ccccc21 (configuration not stated)
Resp: > 100 µM

Req: Give the reported TGI for this molecule. `S=c1oc(CCCCCCCCc2nn(CNc3ccc(Cl)cc3)c(=S)o2)nn1CNc1ccc(Cl)cc1`
Resp: > 100 µM

Req: Give the reported TGI for this molecule. `CC(=O)c1cc(S(=O)(=O)c2ccc(O)c(C(C)=O)c2)ccc1O`
Resp: > 100 µM

---

system: IGROV1 ovarian; assay: NCI tumour cell line growth inhibition, 48 h; in the data active means GI50 below about 0.43 µM; inactive means the rest
In this exercise, the only acceptable responses are yes (1) (active), no (0) (inactive)

Answered examples (3):
Smiles	Tested On	Classification
CCN(Cc1cccc(OC)c1)c1ccc(CO)c(Cl)c1	IGROV1 ovarian	yes (1)
COCCn1cc(-c2csc(-c3c[nH]c4ccccc34)n2)c2cccnc21	IGROV1 ovarian	no (0)
CC1=C(/C=C/C(C)=C\C=C\C(C)=C\C(=O)Nc2ccc3c(c2)OCO3)C(C)(C)CCC1	IGROV1 ovarian	no (0)

Consider now this further compound.
Req: Fill in: this test's call for `CCN(CC)c1ccc(/C=C\c2cc(C)c3cc(C)ccc3n2)cc1` is ___
Resp: no (0)
